- assayed_target: tyrosine kinase FGFR4 (Homo sapiens (Human))
So I've got a bunch of compounds here, and I need their pIC50 values.
Give bare numbers, as −log10 of the molar value.

Worked cases, answers included:
C=CC(=O)Nc1cc(N2CCOCC2C)ccc1Nc1cc2c(cn1)CN(c1c(F)c(OC)nc(OC)c1F)C(=O)C21CC1 (stereo not shown); 9.20
C=CC(=O)N[C@H]1CCOC[C@H]1Nc1ncc2cc(-c3c(Cl)c(OC)cc(OC)c3Cl)ccc2n1 [BLU554, reference compound]; 8.22
C=CC(=O)NCc1cc2c(cn1)CN(c1c(F)c(OC)nc(OC)c1F)C(=O)C21CC1; 8.07
C=CC(=O)Nc1cc(N2CCOCC2)ccc1Nc1cc2c(cn1)CN(c1c(F)c(OC)nc(OC)c1F)C(=O)C21CC1; 9.17
C=CC(=O)Nc1ccccc1Nc1cc2c(cn1)CN(c1c(F)c(OC)nc(OC)c1F)C(=O)C21CC1; 8.27
C=CC(=O)Nc1cc(N2CCOCC2)c(F)cc1Nc1cc2c(cn1)CN(c1c(F)c(OC)nc(OC)c1F)C(=O)C21CC1; 8.59

Ask | Dear colleague, I am looking for the recorded pIC50 of the following compound: `C=CC(=O)Nc1cc(N2CCC(N3CCOCC3)CC2)ccc1Nc1cc2c(cn1)CN(c1c(F)c(OC)nc(OC)c1F)C(=O)C21CC1`
Reply | 9.52

###

Reported values: pIC50 for tyrosine kinase FGFR1 (Homo sapiens (Human)), one per item.
One number for each entry, as −log10 of the molar value.

Worked cases, answers included:
C=CC(=O)Nc1cccc(C)c1Nc1cc2c(cn1)CN(c1c(F)c(OC)nc(OC)c1F)C(=O)C21CC1; 5.07
C=CC(=O)Nc1cc(N2CCOCC2)ccc1Nc1cc2c(cn1)CN(c1c(F)c(OC)nc(OC)c1F)C(=O)C21CC1; 6.01
C=CC(=O)N[C@H]1CCOC[C@H]1Nc1ncc2cc(-c3c(Cl)c(OC)cc(OC)c3Cl)ccc2n1 [BLU554, reference compound]; 6.20
C=CC(=O)Nc1cc(N2CCOCC2C)ccc1Nc1cc2c(cn1)CN(c1c(F)c(OC)nc(OC)c1F)C(=O)C21CC1 (stereo not drawn); 5.64

Each of the following entries comes with a recorded value; kindly state pIC50 for each.
1. C=CC(=O)NCc1cc2c(cn1)CN(c1c(F)c(OC)nc(OC)c1F)C(=O)C21CC1
2. C=CC(=O)Nc1ccccc1Nc1cc2c(cn1)CN(c1c(F)c(OC)nc(OC)c1F)C(=O)C21CC1

Reply |
1. 5.44
2. 5.37

###

- assayed_target: tyrosine kinase FGFR4 (Homo sapiens (Human), UniProt P22455)
- Sequence (P22455 22-802): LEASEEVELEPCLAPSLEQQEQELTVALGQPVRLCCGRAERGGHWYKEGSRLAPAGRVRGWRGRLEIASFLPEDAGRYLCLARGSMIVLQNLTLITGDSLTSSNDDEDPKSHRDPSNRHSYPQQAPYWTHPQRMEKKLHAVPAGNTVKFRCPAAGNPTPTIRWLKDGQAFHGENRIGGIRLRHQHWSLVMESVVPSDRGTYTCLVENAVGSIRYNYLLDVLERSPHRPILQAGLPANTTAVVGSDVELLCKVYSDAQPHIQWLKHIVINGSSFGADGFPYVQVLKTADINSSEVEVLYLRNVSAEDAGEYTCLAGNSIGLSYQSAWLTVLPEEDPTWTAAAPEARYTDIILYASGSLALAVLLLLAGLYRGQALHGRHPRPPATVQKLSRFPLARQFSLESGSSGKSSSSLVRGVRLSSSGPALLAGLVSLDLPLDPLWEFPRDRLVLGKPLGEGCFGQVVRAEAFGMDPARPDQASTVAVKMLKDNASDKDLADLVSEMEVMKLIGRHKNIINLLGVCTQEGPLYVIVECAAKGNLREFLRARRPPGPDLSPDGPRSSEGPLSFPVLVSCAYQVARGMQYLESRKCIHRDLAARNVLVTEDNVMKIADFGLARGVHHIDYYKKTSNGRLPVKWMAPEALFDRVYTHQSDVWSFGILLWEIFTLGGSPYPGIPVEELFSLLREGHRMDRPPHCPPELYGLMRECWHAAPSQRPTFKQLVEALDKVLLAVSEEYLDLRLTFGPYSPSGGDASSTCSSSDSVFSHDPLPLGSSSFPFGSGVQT
- test_description: In vitro kinase test (HTRF), FGFR4
- Assay type: biochemical
- experimental_conditions: ratio of the FGFR1 and FGFR4 IC50 values
observable: FGFR1 IC50 / FGFR4 IC50 ratio (FGFR4 selectivity)
One number for each entry.

Worked cases, answers included:
C=CC(=O)Nc1cc(N2CCOCC2C)ccc1Nc1cc2c(cn1)CN(c1c(F)c(OC)nc(OC)c1F)C(=O)C21CC1 (stereo not shown); 3617
C=CC(=O)Nc1ccccc1Nc1cc2c(cn1)CN(c1c(F)c(OC)nc(OC)c1F)C(=O)C21CC1; 782
C=CC(=O)Nc1cc(N2CCC(N3CCOCC3)CC2)ccc1Nc1cc2c(cn1)CN(c1c(F)c(OC)nc(OC)c1F)C(=O)C21CC1; 20

# ---- query compound ----
Ask | Dear colleague, I am looking for the recorded FGFR1 IC50 / FGFR4 IC50 ratio (FGFR4 selectivity) of the following compound: `C=CC(=O)Nc1cccc(C)c1Nc1cc2c(cn1)CN(c1c(F)c(OC)nc(OC)c1F)C(=O)C21CC1`
Reply | 3172

###

- assayed_target: tyrosine kinase FGFR4 (Homo sapiens (Human), UniProt P22455)
- test_description: In vitro kinase test (HTRF), FGFR4
- Type: biochemical
- experimental_conditions: ratio of the FGFR1 and FGFR4 IC50 values
observable: FGFR1 IC50 / FGFR4 IC50 ratio (FGFR4 selectivity)
Numbers only.

Worked cases, answers included:
C=CC(=O)Nc1cc(N2CCOCC2)ccc1Nc1cc2c(cn1)CN(c1c(F)c(OC)nc(OC)c1F)C(=O)C21CC1; 1468
C=CC(=O)Nc1cc(N2CCOCC2)c(F)cc1Nc1cc2c(cn1)CN(c1c(F)c(OC)nc(OC)c1F)C(=O)C21CC1; 3817

# ---- query compound ----
Ask | Dear colleague, I am looking for the recorded FGFR1 IC50 / FGFR4 IC50 ratio (FGFR4 selectivity) of the following compound: `C=CC(=O)NCc1cc2c(cn1)CN(c1c(F)c(OC)nc(OC)c1F)C(=O)C21CC1`
Reply | 426
